# System: CAKI-1 renal
# Assay Text: NCI-60 one-dose screen, 48 h (100 = growth as untreated, 0 = no growth, -100 = all killed)
# Experimental Parameters: 10 µM unless noted
About 83,000 compounds went through this panel and 20% of them were active in at least one assay; those are over-represented in the sample as a whole. Activity calls are given as the source filed them. The calls were made as follows: active = growth percent below 10; inactive = the rest.
Readout Kind: growth

Inquiry: Answer with the recorded growth for the compound listed here: CCC(C)C1NC(=O)c2nc(oc2-c2ccccc2)-c2csc(n2)-c2csc(n2)-c2nc(oc2C)-c2coc(n2)CNC(=O)C(C(C)CC)NC1=O (stereo not given)
Reply text: -95.2% (active)

Inquiry: Indicate its recorded growth; the compound in question is CCN(CC)Cc1cc(Nc2nc(NC3CCC(N(C)C)CC3)c3ccccc3n2)ccc1OC (stereo not given)
Reply text: 102% (inactive)

Inquiry: Identify measured growth corresponding to CCCCCCCCNC(C)C(O)c1ccc(SC(C)C)cc1 (stereo not given)
Reply text: -56.8% (active)

Inquiry: Give the value of growth reported for the following: COc1c(C(=O)/C=C/c2ccc(C)o2)c(O)cc2occc12
Reply text: 74.2% (inactive)

Inquiry: Given Oc1[nH]c2ccccc2c1/C=c1/ccc2c(c1)N=C(c1ccc(C(F)(F)F)cc1)N=2 , respond with its growth.
Reply text: 32.8% (inactive)

====

# Test system: NCI-H322M lung
# Assay Text: NCI-60 one-dose screen, 48 h (100 = growth as untreated, 0 = no growth, -100 = all killed)
# Experimental Parameters: 10 µM unless noted
Compounds without any hit were thinned out: in the full panel of roughly 83,000, 20% have a hit.
Please provide measured growth for the entries that follow.
State just the number; it will be interpreted in %.

Inquiry: Kindly indicate its recorded growth. Item: CC1=NC(c2ccc(Cl)cc2)C2=C(N1)/C(=C/c1ccc(Cl)cc1)CCC2 (stereo not given)
Reply text: 94.5

Inquiry: Supply growth value. Item: CC(C)(C)c1ccc(Cn2c(-c3nonc3N)nc3ccccc32)cc1
Reply text: 83

Inquiry: Identify measured growth associated with Clc1cn2cc(-c3ccc(Cl)c(Cl)c3Cl)nc2s1
Reply text: 91.9

Inquiry: Please indicate growth recorded for COc1ccc(/C(=C\c2ccc3c(c2)OCO3)C(=O)Nc2nc3ccccc3s2)cc1
Reply text: 94.4

Inquiry: Specify growth for CS(=O)(=O)Nc1cc(-c2cc3ncc(C#N)c(Nc4ccc(Oc5ccccc5)c(Cl)c4)c3s2)cnc1Cl and stop.
Reply text: 26.9

====

# Tested on: HOP-92 NSCLC
# Assay Text: NCI-60 one-dose screen, 48 h
# Experimental Parameters: 10 µM unless noted
Compounds without any hit were thinned out: in the full panel of roughly 83,000, 20% have a hit. Activity calls are given as the source filed them. Rule for the calls: active = growth percent below 10; inactive = the rest.
Thanks in advance; please answer with one of these: active, inactive

Inquiry: Test call, this compound: COC(=O)c1cc(Cl)cc([N+](=O)[O-])c1O
Reply text: inactive

Inquiry: What classification did Cc1cc(C)c([O-])c(CN(C)CCN(C)Cc2cc(C)cc(C)c2[O-])c1.O=C([O-])c1cccc(C(=O)[O-])n1.[Ti+4] end up with in this test?
Reply text: active

Inquiry: Status in this test for COc1ccc(/C=c2\c(=O)n(-c3ccccc3)c3nn4c(=O)c(=O)[nH]nc4n23)cc1 ?
Reply text: inactive

Inquiry: Check the results log: what was the call for Cc1cc(NC(=O)c2ccc(N)cc2)ccc1N=Nc1ccc2cc(S(=O)(=O)O)cc(S(=O)(=O)O)c2c1 ?
Reply text: inactive

Inquiry: Lab log entry: COc1ccc(OC)c(Nc2nc(-c3c(C)nc4sccn34)cs2)c1 — outcome as called in the assay?
Reply text: inactive

Inquiry: Which result was noted for this compound in the test: c1ccc(C(CC2=NCCCN2)c2ccccc2)cc1
Reply text: inactive

Inquiry: Entry Cc1cc(-c2nnc(/C=C/c3ccc4c(c3)OCO4)o2)n[nH]1 : call = ?
Reply text: inactive

Inquiry: Identify the outcome logged in this assay for the compound shown: COC(=O)C1(C)COP(=O)(NC23CC4CC(CC(C4)C2)C3)OC1 (stereo not given)
Reply text: inactive

Inquiry: What outcome does the record of this test show for O=C(Nc1ccc(Cl)c(C(F)(F)F)c1)c1ccc(Nc2ccc(Cl)nn2)cc1 ?
Reply text: inactive

Inquiry: Entry CCCCCCCCCC1=NC(C)(C)CN1C(C)(C)CO : call = ?
Reply text: inactive

src = PubChem BioAssay (NCI)
